- PROCEDURE SUMMARY: orientative acute toxicity (LD50), single oral administration, assessed on the seventh day, mice
- MEASUREMENT SETUP: mouse, in vivo, nine hours food deprived
OUTCOME MEASURE: LD50 at 168 h

Ask | GET /values?readout=LD50 at 168 h&item= Cn1ccnc1C1=Cc2cc(OCCCC(C)(C)C(=O)NC3CCCCC3)ccc2OC1CCc1ccc(F)cc1 (racemic) [FCE 27116]
Reply | > 800 mg/kg

====

- TESTED TARGET: acyl CoA:cholesterol acyltransferase (ACAT-EC 2.3.1.26) (Oryctolagus cuniculus, UniProt A0A5F9CPP4)
- Sequence (A0A5F9CPP4 1-555): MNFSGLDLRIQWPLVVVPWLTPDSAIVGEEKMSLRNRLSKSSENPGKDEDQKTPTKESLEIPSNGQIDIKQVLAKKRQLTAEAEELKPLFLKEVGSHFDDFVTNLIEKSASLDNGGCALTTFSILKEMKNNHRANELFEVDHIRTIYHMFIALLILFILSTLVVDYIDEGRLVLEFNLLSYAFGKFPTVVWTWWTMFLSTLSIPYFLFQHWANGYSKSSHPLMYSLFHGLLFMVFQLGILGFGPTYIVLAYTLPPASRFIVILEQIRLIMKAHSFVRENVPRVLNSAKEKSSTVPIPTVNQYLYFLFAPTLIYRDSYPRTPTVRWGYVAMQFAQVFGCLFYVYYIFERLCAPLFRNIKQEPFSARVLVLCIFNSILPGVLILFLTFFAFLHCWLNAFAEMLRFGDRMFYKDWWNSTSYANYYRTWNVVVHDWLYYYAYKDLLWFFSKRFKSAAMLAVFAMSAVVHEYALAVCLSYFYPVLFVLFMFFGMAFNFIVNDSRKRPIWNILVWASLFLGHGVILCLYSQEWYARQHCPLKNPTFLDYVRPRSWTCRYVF
OUTCOME MEASURE: pIC50
Give bare numbers, as −log10 of the molar value.

Report pIC50 for each item below.
1. CCCC1Oc2ccc(OCCCC(C)(C)C(=O)OCC)cc2C=C1c1nccn1C (racemic) [FCE 25184, reference compound]
2. CC(C)c1cccc(C(C)C)c1NC(=O)C(C)(C)CCCOc1ccc2c(c1)C=C(c1nccn1C)C(CCc1ccccc1)O2 (racemic) [FCE 26734]
3. CCOC(=O)C1(CCCOc2ccc3c(c2)C=C(c2nccn2C)C(CCc2ccccc2)O3)CCCC1 (racemic) [FCE 27051]
4. CC(C)c1cccc(C(C)C)c1NC(=O)C(C)(C)CCCOc1ccc2c(c1)C=C(c1nccn1C)C(CCc1ccc(F)cc1F)O2 (racemic) [FCE 27113]
5. Cn1ccnc1C1=Cc2cc(OCCCC(C)(C)C(=O)NC3CCCCC3)ccc2OC1CCc1ccc(F)cc1 (racemic) [FCE 27116]

Reply |
5.97
7.07
7.18
7.09
7.40
